// provenance: ChEMBL document CHEMBL1148329

For each of the compounds below, state its Efficacy.
Target system: Alpha-1A adrenergic receptor (Oryctolagus cuniculus)
Assay method text: Efficacy relative to phenylephrine (PE) to constrict tissue containing the alpha-1A adrenergic receptor in rabbit urethra
Format: functional, tissue-based
One number for each entry, in %.

Solved entries (count: 10):
[[record]]
compound = "Cc1ccc(NS(C)(=O)=O)c2c1C(c1c[nH]cn1)CCC2 (stereo not given)"
target_system = "Alpha-1A adrenergic receptor (Oryctolagus cuniculus)"
unit_info = "%"
data_value = 35

[[record]]
compound = "CC(=O)Nc1cccc2c1CCCC2c1c[nH]cn1 (stereo not given)"
target_system = "Alpha-1A adrenergic receptor (Oryctolagus cuniculus)"
unit_info = "%"
data_value = 70

[[record]]
compound = "CCS(=O)(=O)Nc1cccc2c1CCCC2c1c[nH]cn1 (single isomer, unassigned; (+))"
target_system = "Alpha-1A adrenergic receptor (Oryctolagus cuniculus)"
unit_info = "%"
data_value = 71

[[record]]
compound = "CS(=O)(=O)Nc1ccc(F)c2c1CCCC2c1c[nH]cn1 (stereo not given)"
target_system = "Alpha-1A adrenergic receptor (Oryctolagus cuniculus)"
unit_info = "%"
data_value = 64

[[record]]
compound = "CS(=O)(=O)Nc1c(O)ccc2c1CCCC2C1=NCCN1 (stereo not given)"
target_system = "Alpha-1A adrenergic receptor (Oryctolagus cuniculus)"
unit_info = "%"
data_value = 88

[[record]]
compound = "CCS(=O)(=O)Nc1cccc2c1CCC2c1c[nH]cn1 (stereo not given)"
target_system = "Alpha-1A adrenergic receptor (Oryctolagus cuniculus)"
unit_info = "%"
data_value = 87

[[record]]
compound = "O=S(=O)(Nc1cccc2c1CCCC2c1c[nH]cn1)C1CC1 (stereo not given)"
target_system = "Alpha-1A adrenergic receptor (Oryctolagus cuniculus)"
unit_info = "%"
data_value = 51

[[record]]
compound = "CS(=O)(=O)Nc1c(O)ccc2c1CCCC2c1c[nH]cn1 (stereo not given)"
target_system = "Alpha-1A adrenergic receptor (Oryctolagus cuniculus)"
unit_info = "%"
data_value = 104

[[record]]
compound = "CS(=O)(=O)Nc1cccc2c1CCCC2c1c[nH]cn1 (stereo not given)"
target_system = "Alpha-1A adrenergic receptor (Oryctolagus cuniculus)"
unit_info = "%"
data_value = 83

[[record]]
compound = "CN(c1cccc2c1CCCC2c1c[nH]cn1)S(C)(=O)=O (stereo not given)"
target_system = "Alpha-1A adrenergic receptor (Oryctolagus cuniculus)"
unit_info = "%"
data_value = 79


# per-item lookup of Efficacy; items listed below
1. CC(c1cccc(NS(C)(=O)=O)c1)c1c[nH]cn1 (stereo not given)
2. CS(=O)(=O)Nc1cccc2c1OCCC2c1c[nH]cn1 (stereo not given)
3. CC(C)S(=O)(=O)Nc1cccc2c1CCCC2c1c[nH]cn1 (stereo not given)
4. O=S(=O)(CC(F)(F)F)Nc1cccc2c1CCCC2c1c[nH]cn1 (single isomer, unassigned; (+))
5. CS(=O)(=O)Nc1ccc(O)c2c1CCCC2c1c[nH]cn1 (stereo not given)

### Response
1: 92; 2: 88; 3: 74; 4: 52; 5: 34
